Taken from paper PMC3734085.

measured-target: T1, His-tagged Sec6p (pET46-Sec6) (S. cerevisiae, UniProt P32844 1-805)
T1 sequence: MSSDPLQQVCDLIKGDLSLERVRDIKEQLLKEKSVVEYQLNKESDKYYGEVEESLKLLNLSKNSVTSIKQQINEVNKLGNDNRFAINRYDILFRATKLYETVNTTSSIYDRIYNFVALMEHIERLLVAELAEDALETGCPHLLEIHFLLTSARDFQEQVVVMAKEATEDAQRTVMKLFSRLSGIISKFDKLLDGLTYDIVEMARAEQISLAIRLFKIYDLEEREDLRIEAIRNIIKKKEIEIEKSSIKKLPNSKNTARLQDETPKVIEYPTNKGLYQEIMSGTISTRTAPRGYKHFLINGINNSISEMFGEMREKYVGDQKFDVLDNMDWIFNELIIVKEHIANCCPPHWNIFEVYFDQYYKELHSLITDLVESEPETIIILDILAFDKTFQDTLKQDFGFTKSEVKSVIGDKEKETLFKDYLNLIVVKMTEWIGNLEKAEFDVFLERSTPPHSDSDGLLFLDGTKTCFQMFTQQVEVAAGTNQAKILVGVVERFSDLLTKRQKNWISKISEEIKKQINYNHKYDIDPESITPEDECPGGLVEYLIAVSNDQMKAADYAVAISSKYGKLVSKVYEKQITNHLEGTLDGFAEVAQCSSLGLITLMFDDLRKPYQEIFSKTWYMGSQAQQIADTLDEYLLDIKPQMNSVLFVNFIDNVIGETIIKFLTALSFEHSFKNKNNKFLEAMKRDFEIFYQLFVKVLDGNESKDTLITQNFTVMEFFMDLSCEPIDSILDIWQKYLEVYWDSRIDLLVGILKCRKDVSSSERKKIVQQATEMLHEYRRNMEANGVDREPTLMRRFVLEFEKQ
test-method-notes: pull-down
measure-name: binding result

GST-Snc2p E60K D61R D64R (M4) (domain or fragment) MSSSVPYDPYVPPEESNSGANPNSQNKTAALRQEIDDTVGIMRDNINKVAERGERLTSIKRKARNLAISAQGFKRGANRVRKQMWWKDLKMR	binds
GST-Snc2p E51A E54A (M5) (domain or fragment) MSSSVPYDPYVPPEESNSGANPNSQNKTAALRQEIDDTVGIMRDNINKVAARGARLTSIEDKADNLAISAQGFKRGANRVRKQMWWKDLKMR	binds
